- Target Or Test System: T1, cynomolgus monkey BCMA (cynomolgus monkey, UniProt A0A2K5UD97 1-53)
- T1 construct: Soluble analyte in SPR; construct not described; also called cyBCMA; Cyno BCMA
- T1 sequence (A0A2K5UD97 entry or part of it): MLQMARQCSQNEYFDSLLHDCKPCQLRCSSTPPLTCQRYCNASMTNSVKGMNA
- Assay Method Text: SPR, IgG on chip, cyBCMA analyte
Reported kon by item:
Numeric only. Scale: M⁻¹ s⁻¹

Previously resolved entries follow.
Query: kon; subject: A02_Rd4_6nM_C08 (antibody, V domains shown, IgG) VH: EVQLLESGGGLVQPGGSLRLSCAASGFTFSSYAMNWVRQAPGKGLEWVSAILDSGGSTYYADSVKGRFTISRDNSKNTLYLQMNSLRAEDTAVYYCARYWPMSPWGQGTLVTVSS VL: EIVLTQSPGTLSLSPGERATLSCRASQSVSFLYLAWYQQKPGQAPRLLMYDASIRATGIPDRFSGSGSGTDFTLTISRLEPEDFAVYYCQQYGSWPLTFGQGTKVEIK 2.23e+06

Queued: COMBO_Rd4_0.6nM_C29 (antibody, V domains shown, IgG) VH: EVQLLESGGGLVQPGGSLRLSCAASGFTFSSYPMSWVRQAPGKGLEWVSAIGGSGGSLPYADSVKGRFTISRDNSKNTLYLQMNSLRAEDTAVYYCARYWPMDIWGQGTLVTVSS VL: EIVLTQSPGTLSLSPGERATLSCRASQSVSSSYLAWYQQKPGQAPRLLMYDASIRATGIPDRFSGSGSGTDFTLTISRLEPEDFAVYYCQQYQSWPLTFGQGTKVEIK 4e+06

Proceeding to the next binder to report its kon.
Query: kon; subject: C01_Rd4_6nM_C09 (antibody, V domains shown, IgG) VH: EVQLLESGGGLVQPGGSLRLSCAASGFTFSSYPMSWVRQAPGKGLEWVSATVGSGGSIGYADSVKGRFTISRDNSKNTLYLQMNSLRAEDTAVYYCARYWPMDSWGQGTLVTVSS VL: EIVLTQSPGTLSLSPGERATLSCACSQSVSSTYLAWYQQKPGQAPRLLIYDASSRAPGIPDRFSGSGSGTDFTLTISRLEPEDFAVYYCQQYSAWPLTFGQGTKVEIK 3.73e+06
